# target-or-system: T1, human BCMA (human, UniProt Q02223 1-54)
# T1 construct: also called huBCMA; hBCMA
# T1 sequence: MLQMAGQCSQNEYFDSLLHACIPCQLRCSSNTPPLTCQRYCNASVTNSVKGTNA
# test-description: SPR, immobilised IgG, 37° C
The entries below come with measured T½ values attached.
attribute-measured: T½ (min)

binder="L3.PY/L1.AH/H3.AE (antibody, V domains shown, IgG in the assay) VH: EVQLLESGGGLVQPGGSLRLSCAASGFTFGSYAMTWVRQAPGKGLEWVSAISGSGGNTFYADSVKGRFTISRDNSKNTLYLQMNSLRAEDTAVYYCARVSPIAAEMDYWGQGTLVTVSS VL: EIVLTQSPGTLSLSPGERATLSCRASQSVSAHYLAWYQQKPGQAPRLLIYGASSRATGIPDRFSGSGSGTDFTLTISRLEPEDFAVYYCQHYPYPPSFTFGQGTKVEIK" attribute_measured=T½ units_text=min result_value=6.7
binder="L3.PY/L3.KF/H2.DY (antibody, V domains shown, IgG in the assay) VH: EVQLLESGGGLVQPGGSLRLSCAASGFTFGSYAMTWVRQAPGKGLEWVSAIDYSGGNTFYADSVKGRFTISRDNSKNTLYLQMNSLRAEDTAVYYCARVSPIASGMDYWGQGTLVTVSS VL: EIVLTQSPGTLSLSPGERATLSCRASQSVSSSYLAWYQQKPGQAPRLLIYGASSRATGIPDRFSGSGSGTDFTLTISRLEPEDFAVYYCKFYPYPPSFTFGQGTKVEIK" attribute_measured=T½ units_text=min result_value=6.35
binder="L3.PY/H2.HA (antibody, V domains shown, IgG in the assay) VH: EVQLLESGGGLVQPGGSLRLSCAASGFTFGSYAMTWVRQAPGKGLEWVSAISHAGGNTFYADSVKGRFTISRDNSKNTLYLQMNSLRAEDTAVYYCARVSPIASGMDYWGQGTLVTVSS VL: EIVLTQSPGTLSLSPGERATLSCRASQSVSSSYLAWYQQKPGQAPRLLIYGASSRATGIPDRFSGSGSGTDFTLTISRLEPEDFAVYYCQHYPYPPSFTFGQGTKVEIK" attribute_measured=T½ units_text=min result_value=7.89
binder="L3.PY/H2.LT (antibody, V domains shown, IgG in the assay) VH: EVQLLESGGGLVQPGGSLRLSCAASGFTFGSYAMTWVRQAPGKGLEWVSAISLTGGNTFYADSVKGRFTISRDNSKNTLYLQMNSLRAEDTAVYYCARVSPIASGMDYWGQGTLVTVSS VL: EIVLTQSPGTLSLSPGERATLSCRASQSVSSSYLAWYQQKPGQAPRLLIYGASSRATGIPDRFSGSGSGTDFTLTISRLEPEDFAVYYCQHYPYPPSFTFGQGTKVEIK" attribute_measured=T½ units_text=min result_value=8.95
binder="L3.PY/L1.FF/H2.QR (antibody, V domains shown, IgG in the assay) VH: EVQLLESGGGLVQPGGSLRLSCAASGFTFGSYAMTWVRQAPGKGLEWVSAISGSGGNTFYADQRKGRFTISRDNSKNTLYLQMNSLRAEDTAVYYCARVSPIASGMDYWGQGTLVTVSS VL: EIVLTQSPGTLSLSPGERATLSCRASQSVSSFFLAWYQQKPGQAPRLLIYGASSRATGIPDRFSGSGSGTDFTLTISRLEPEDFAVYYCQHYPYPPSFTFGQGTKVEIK" attribute_measured=T½ units_text=min result_value=6.54
binder="L3.PY/L1.FF/H2.YQ (antibody, V domains shown, IgG in the assay) VH: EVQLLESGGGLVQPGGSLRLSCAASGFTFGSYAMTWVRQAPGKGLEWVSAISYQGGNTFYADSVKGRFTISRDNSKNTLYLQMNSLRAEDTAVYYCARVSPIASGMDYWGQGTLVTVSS VL: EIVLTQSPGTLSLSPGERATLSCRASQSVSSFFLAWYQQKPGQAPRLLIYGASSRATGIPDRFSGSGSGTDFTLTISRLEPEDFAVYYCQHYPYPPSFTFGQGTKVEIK" attribute_measured=T½ units_text=min result_value=7.61
binder="L3.PY/L1.FF/H3.AQ (antibody, V domains shown, IgG in the assay) VH: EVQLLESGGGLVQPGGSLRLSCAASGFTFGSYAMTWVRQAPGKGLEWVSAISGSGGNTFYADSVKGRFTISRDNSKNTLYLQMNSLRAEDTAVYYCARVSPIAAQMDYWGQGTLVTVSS VL: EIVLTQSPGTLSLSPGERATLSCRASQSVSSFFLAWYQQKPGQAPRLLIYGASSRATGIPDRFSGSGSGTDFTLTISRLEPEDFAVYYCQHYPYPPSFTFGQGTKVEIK" attribute_measured=T½ units_text=min result_value=7.51
binder="L3.PY/L1.FF/H2.LT (antibody, V domains shown, IgG in the assay) VH: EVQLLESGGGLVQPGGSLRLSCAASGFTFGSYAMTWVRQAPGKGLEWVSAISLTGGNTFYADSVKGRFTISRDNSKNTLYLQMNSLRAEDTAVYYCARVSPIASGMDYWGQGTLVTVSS VL: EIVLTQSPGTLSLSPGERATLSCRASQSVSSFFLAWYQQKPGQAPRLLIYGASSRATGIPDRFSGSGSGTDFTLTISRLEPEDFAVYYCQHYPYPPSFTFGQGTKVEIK" attribute_measured=T½ units_text=min result_value=6.92
binder="L3.PY/L3.KF/H3.AE (antibody, V domains shown, IgG in the assay) VH: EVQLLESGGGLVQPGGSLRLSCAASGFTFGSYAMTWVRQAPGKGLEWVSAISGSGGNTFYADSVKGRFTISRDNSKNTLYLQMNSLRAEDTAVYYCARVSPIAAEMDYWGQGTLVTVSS VL: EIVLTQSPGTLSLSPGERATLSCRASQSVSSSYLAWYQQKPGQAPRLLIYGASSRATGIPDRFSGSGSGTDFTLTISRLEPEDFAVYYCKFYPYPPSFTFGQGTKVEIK" attribute_measured=T½ units_text=min result_value=7.44
binder="L3.PY/L1.AH/H2.QR (antibody, V domains shown, IgG in the assay) VH: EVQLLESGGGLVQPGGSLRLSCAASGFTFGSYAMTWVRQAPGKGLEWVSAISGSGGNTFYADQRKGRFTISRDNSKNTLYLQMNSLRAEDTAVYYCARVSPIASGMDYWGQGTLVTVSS VL: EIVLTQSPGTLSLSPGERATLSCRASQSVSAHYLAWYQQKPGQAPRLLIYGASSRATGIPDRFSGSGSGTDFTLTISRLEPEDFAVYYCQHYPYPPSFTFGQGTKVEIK" attribute_measured=T½ units_text=min result_value=6.39
